Taken from patent US20060166900A1.

ASSAY_INFO: Stability indicating HPLC assay and related substances on storage (Example 3)
Format: physicochemical
EXPERIMENTAL_SETUP: 1 month, 25° C./60% RH
READOUT: M6G Assay, As is basis (% w/w)
Only the number, expressed in % w/w, is required.

Consider the following illustrative entries.
MOLECULE	U	NUMERIC_VALUE
CN1CC[C@]23c4c5ccc(O)c4O[C@H]2[C@@H](O[C@@H]2O[C@H](C(=O)O)[C@@H](O)[C@H](O)[C@H]2O)C=C[C@H]3[C@H]1C5 [Morphine-6-glucuronide base, morphine-6-β-D-glucuronide]	% w/w	90.77
CN1CCC23c4c5ccc(O)c4OC2C(OC2OC(C(=O)O)C(O)C(O)C2O)C=CC3C1C5.CN1CCC23c4c5ccc(O)c4OC2C(OC2OC(C(=O)O)C(O)C(O)C2O)C=CC3C1C5.O=S(=O)(O)O (stereo not shown) [Morphine-6-glucuronide sulphate]	% w/w	73.58
CN1CCC23c4c5ccc(O)c4OC2C(OC2OC(C(=O)O)C(O)C(O)C2O)C=CC3C1C5.O=P(O)(O)O (stereo not shown) [Morphine-6-glucuronide phosphate]	% w/w	84.57
Br.CN1CC[C@]23c4c5ccc(O)c4O[C@H]2[C@@H](O[C@@H]2O[C@H](C(=O)O)[C@@H](O)[C@H](O)[C@H]2O)C=C[C@H]3[C@H]1C5 [Morphine-6-glucuronide hydrobromide]	% w/w	83.02
CN1CCC23c4c5ccc(O)c4OC2C(OC2OC(C(=O)O)C(O)C(O)C2O)C=CC3C1C5.CN1CCC23c4c5ccc(O)c4OC2C(OC2OC(C(=O)O)C(O)C(O)C2O)C=CC3C1C5.O=C(O)C=CC(=O)O (stereo not shown) [Morphine-6-glucuronide maleate]	% w/w	80.27
CN1CC[C@]23c4c5ccc(O)c4O[C@H]2[C@@H](O[C@@H]2O[C@H](C(=O)O)[C@@H](O)[C@H](O)[C@H]2O)C=C[C@H]3[C@H]1C5.Cl [Morphine-6-glucuronide hydrochloride]	% w/w	79.21

Provide only the value of recorded M6G Assay, As is basis for CN1CCC23c4c5ccc(O)c4OC2C(OC2OC(C(=O)O)C(O)C(O)C2O)C=CC3C1C5.CN1CCC23c4c5ccc(O)c4OC2C(OC2OC(C(=O)O)C(O)C(O)C2O)C=CC3C1C5.O=C(O)C=CC(=O)O (stereo not shown) [Morphine-6-glucuronide fumarate]
81.96
